growth: recorded values
test system: NCI-H522 lung; assay: NCI-60 one-dose screen, 48 h (100 = growth as untreated, 0 = no growth, -100 = all killed); settings: 10 µM unless noted
About 83,000 compounds went through this panel and 20% of them were active in at least one assay; those are over-represented in the sample as a whole.
Output spec: scalar in %, unitless text.

molecule | units.text | readout.number
CC(C)C1=C[C@@]23CC[C@@H]4[C@](C)(CCC[C@@]4(C)C(=O)OCC#CCN4CCCC4)[C@H]2C[C@@H]1[C@H]1C(=O)OC(=O)[C@H]13 | % | 78.7
C=CCSc1nnc(-c2ccc(C(C)(C)C)cc2)n1-c1cccc(C(F)(F)F)c1 | % | 37.3
CC(=O)C1=C(O)C=C2Oc3c(C(=O)/C=C/c4cc(C(F)(F)F)cc(C(F)(F)F)c4)c(O)c(C)c(O)c3[C@]2(C)C1=O | % | -36
O=C(CN1CCOCC1)Nc1ccc(Cn2nnc3c2C(=O)c2nnn(Cc4ccc(NC(=O)CN5CCOCC5)cc4)c2C3=O)cc1 | % | -43
O=c1c2cccc3c(Nc4ccccn4)ccc(c32)c2nc3ccccc3n12 | % | 56.6
CC(=O)N1CC(Nc2ccc(OC(F)(F)F)cc2)=CC1=O | % | 29.3

Entry under test: CN1CCN(Cc2ccc(NC(=O)c3[nH]ncc3Nc3ncnc4sccc34)cc2)CC1 . Its growth was 14

// field: growth; key: NC(=S)N/N=C/c1ccc(OCc2ccccc2)cc1 ; value = -24.1

growth in this record for O=c1c(/C=C/c2ccco2)nnc(SCCN2CCOCC2)n1/N=C/c1ccc([N+](=O)[O-])cc1 : 86.5

Sure, the documented growth for O=[N+]([O-])c1cccc(-c2nc3sccn3c2-c2ccnc(NCCCNS(=O)(=O)c3ccc(Br)cc3)n2)c1 is 37.4

Kindly note the recorded growth for CC(C)(C)c1nn(-c2ccccc2)c2c1CC1(CN2Cc2ccc3c(c2)OCO3)C(=O)c2ccccc2C1=O , which is 141

Notebook: NC(=S)N/N=C/c1cc(-c2cccc(N)c2)ccn1 , growth read as -17.3

---

system: IGROV1 ovarian; assay: NCI-60 one-dose screen, 48 h; conditions: 10 µM unless noted
The panel holds about 83,000 compounds, 20% with a hit somewhere; the sample as a whole holds those more often. Calls of active or inactive are those of the source. The calls were made as follows: active = growth percent below 10; inactive = the rest.
Please answer using one outcome listed in active, inactive

Solved cases (5 shown):
compound | answer.label
O=C1C=CC(=O)N1c1ccc(Cc2ccc(N3C(=O)C=CC3=O)cc2)cc1 | inactive
COCCCN=C(N)c1ccc(NC(=O)c2ccc(C(=O)Nc3ccc(C(N)=NCCCOC)cc3)cc2)cc1 | inactive
COc1cccc(/C=C\C(=O)c2ccccc2)c1 | active
O=c1cc(-c2ccccc2)[nH]c2ccccc12 | active
C(=N\Nc1nnn(Cc2ccccc2)n1)/c1ccccc1 | inactive

How did this test come out for C=C1CC2(OC1=O)C(=O)N(CCCCCCCCCCCCN1C(=O)C3(CC(=C)C(=O)O3)c3ccccc31)c1ccccc12 (centres undefined) ?
inactive

Just curious, what result did Cc1noc(C)c1-c1cc(O)cc(C(O)c2ccccc2)c1 (centres undefined) get here?
inactive

Per the assay record, what outcome was assigned to CCCCCN(CCCCC)CCC[C@@H](C)[C@H]1CC[C@H]2[C@@H]3[C@H](OCCCN)C[C@@H]4C[C@H](OCCCN)CC[C@]4(C)[C@H]3C[C@H](OCCCN)[C@]12C ?
inactive

Hi, do you know how Cn1cc(-c2ccc(-c3cn(C)c4ncccc34)[nH]2)c2cccnc21 came out in this test?
inactive

---

Recorded growth by entry
tested on: T-47D breast; test: NCI-60 one-dose screen, 48 h (100 = growth as untreated, 0 = no growth, -100 = all killed); conditions: 10 µM unless noted
The panel holds about 83,000 compounds, 20% with a hit somewhere; the sample as a whole holds those more often.
Give a bare numeral; the unit % is implied.

Example entries begin here.
molecule | measured.on | units.text | readout.number
CC/C=C\C[C@H](O)C/C=C1/C(=O)C=C[C@@H]1C/C=C\CCCC(=O)OC(C)C | T-47D breast | % | 6.79
C=C1CC[C@@H]2[C@](C)(COC(C)=O)[C@H](OC(C)=O)CC[C@@]2(C)[C@@H]1CC(Nc1ccc(S(=O)(=O)Nc2ccc(Cl)nn2)cc1)C1=CCOC1=O (stereo not given in full) | T-47D breast | % | 34.1
Nc1cc2nc3ccccc3sc-2cc1=O | T-47D breast | % | 71.1
Cc1ccc(Nc2c(C(N)=O)cnc3ccc(-c4csc(N)n4)cc23)cc1 | T-47D breast | % | 96.7

Measured growth of CCN(CC)Cc1cc(Nc2c3ccc(Cl)cc3nc3c(C)cccc23)ccc1O : -70.5

---

tested on: M14 melanoma; experiment: NCI-60 one-dose screen, 48 h (100 = growth as untreated, 0 = no growth, -100 = all killed); conditions: 10 µM unless noted
Compounds without any hit were thinned out: in the full panel of roughly 83,000, 20% have a hit.
quantity.measured: growth (%)
Please reply with the bare figure in % and do not write the unit itself.

given.smiles | growth, %
O=C1Nc2c(ccc(Cl)c2Cl)/C1=C/c1cc(Br)c(O)c(Br)c1 | 33.2

Memo: O=C(Nc1ccc(Nc2cc(Nc3ccccc3)ncn2)cc1)Nc1cc(C(F)(F)F)ccc1F , reported growth: 57.4

Looking up COc1ccc(-n2c(C)nc3c(c(C)nn3-c3ccccc3)c2=O)cc1 , I found its growth recorded as 10.4

Notebook: COc1ccc(C(=O)c2sc3nc4c(c(C(F)(F)F)c3c2N)CN(C(C)=O)CC4)cc1OC , growth read as 100

The molecule CC(C)(C)c1nn(-c2ccccc2)c2c1CC1(CN2Cc2ccc3c(c2)OCO3)C(=O)c2ccccc2C1=O showed growth equal to 120

In plain terms, CC/C=C\C[C@H](F)C/C=C1/C(=O)C=C[C@@H]1C/C=C\CCCC(=O)O has a documented growth of 32.1

---

tested on: EKVX NSCLC; assay: NCI-60 one-dose screen, 48 h (100 = growth as untreated, 0 = no growth, -100 = all killed); settings: 10 µM unless noted
The panel holds about 83,000 compounds, 20% with a hit somewhere; the sample as a whole holds those more often.
Simple rule here: growth less than 80% is Yes, otherwise No.

Sample answers from the record:
compound | answer.label
C/C(=C(/c1ccc(O)cc1)c1ccc(OCCN(C)C)cc1)c1ccccc1 | No
COc1cc2c(cc1O)CCc1cc(O)cc(OC)c1-2 | No
CC(=O)OC1Oc2cc(C)c(C)cc2-c2oc(=O)c(-c3cc4ccc(N(C)C)cc4oc3=O)cc21 (centres undefined) | Yes

Below 80% on growth? Entry CCN(CC)CCCC(C)Nc1ccnc2c(OC)cccc12 (centres undefined)
No

Lab note: confirm whether the reported growth for this compound is below 80%, equality not counting. compound: Cc1cc2cc3cc(C)c(N(C)C)cc3[n+](C)c2cc1N(C)C
Yes

Lab note: confirm whether the reported growth for this compound is below 80%, equality not counting. compound: COc1ccc(/C=N\NC(=O)CN2CCN(c3cc4c(cc3F)c(=O)c(C(=O)N/N=C/c3ccc(OC)cc3)cn4C3CC3)CC2)cc1
Yes

Report whether reported growth is lower than 80% (strictly) for CC1=C(C)C(=O)OC([C@](C)(O)[C@]2(O)CC[C@@]3(O)[C@@H]4C[C@H]5O[C@]56CC=CC(=O)[C@]6(C)[C@H]4CC[C@]23COC(=O)c2ccc(C)o2)C1 (some centres undefined)
Yes

In the record for CS(=O)(=O)c1c(Nc2ccccc2)n[nH]c1N , is growth less than 80%?
No

For this compound, is growth lower than 80%? COc1ccc(-n2c(C)nc3c(c(C)nn3-c3ccccc3)c2=O)cc1
Yes

Does C=C1CC[C@@H]2[C@](C)(COC(C)=O)[C@H](OC(C)=O)CC[C@@]2(C)[C@@H]1CC(Nc1ccc(S(=O)(=O)Nc2ccc(Cl)nn2)cc1)C1=CCOC1=O (some centres undefined) have growth strictly under 80%?
No

In plain terms, does CCCNc1nc(SC)nc(-c2cccc(N)c2)c1C#N come in under 80% for growth?
No

Strictly below 80% in growth? COc1ncc(-c2ccc3ncnc(Nc4cccc(Cl)c4)c3c2)cc1NS(C)(=O)=O
Yes

Below 80% on growth? Entry COc1ccc(S(=O)(=O)NCCCNc2nccc(-c3c(-c4cccc(N)c4)nc4sccn34)n2)cc1
No

Does CC/C=C\C[C@H](O)C/C=C1/C(=O)C=C[C@@H]1C/C=C\CCCC(=O)NC have growth strictly under 80%?
Yes

# check: growth < 80% for COCCCN=C(N)c1ccc(NC(=O)c2ccc(C(=O)Nc3ccc(C(N)=NCCCOC)cc3)cc2)cc1
Yes

Does O=C1C=CC(Nc2ccccc2[N+](=O)[O-])C1Nc1ccccc1[N+](=O)[O-] (centres undefined) have growth strictly under 80%?
Yes

Is growth strictly under 80% for the entry O=C(COc1cccc(/C=C2/Oc3ccccc3C2=O)c1)Nc1nccs1 ?
Yes

Determine if CS(CCCCN=C=S)=NC(=O)c1c(F)c(F)c(F)c(F)c1F (centres undefined) shows growth strictly lower than 80%.
No

Is 80% strictly greater than the compound's reported growth? compound: C=C1CCC2C3(C)COC(C)(C)OC3CCC2(C)C1C/C=C1/C(=O)OCC1OC(C)=O (centres undefined)
Yes

For this compound, is growth lower than 80%? COc1ccc(CN2C(=O)/C(=C\c3cc(OC)c(OC)c(OC)c3)c3cc(OC)ccc32)cc1
Yes

In plain terms, does COc1cc(-c2c3c(nc4c2c(C)nn4-c2ccccc2)-c2ccccc2C(=O)C3=O)cc(OC)c1OC come in under 80% for growth?
No

Bench note: check whether O=C(CN1CCN(c2cc3c(cc2F)c(=O)c(C(=O)O)cn3C2CC2)CC1)Nc1nc(-c2ccccc2)cs1 shows growth below 80%
No
